Target: SMARCA4 (Homo sapiens (Human))
Assay: SMARCA4 HiBiT degradation assay in HeLa cells
Type: cell-based
Conditions: 18 hours, read-out: DC50 (SM4-HeLa) SMARCA4 degradation potency
Measured DC50, listed per entry for reference.

INSERT INTO assay_data (compound, result) VALUES
  ('Cc1ncsc1-c1ccc([C@H](C)NC(=O)[C@@H]2C[C@@H](O)CN2C(=O)[C@@H](c2cc(O[C@@H](C)C(=O)N3CCC(N4CCN5c6cc(-c7ccccc7O)nnc6NC[C@H]5C4)CC3)no2)C(C)C)cc1', '100 to 1000 nM');

DC50 of Cc1ncsc1-c1ccc([C@H](C)NC(=O)[C@@H]2C[C@@H](O)CN2C(=O)[C@@H](c2cc(OCCN3CCC(N4CCC(N5CCN6c7cc(-c8ccccc8O)nnc7NC[C@H]6C5)C4)CC3)no2)C(C)C)cc1 (single isomer, unassigned) [Example 70] on SMARCA4 (Homo sapiens (Human))?
< 100 nM

###

Molecular target: SMARCA2 (Homo sapiens (Human), UniProt P51531)
Sequence (P51531 whole entry): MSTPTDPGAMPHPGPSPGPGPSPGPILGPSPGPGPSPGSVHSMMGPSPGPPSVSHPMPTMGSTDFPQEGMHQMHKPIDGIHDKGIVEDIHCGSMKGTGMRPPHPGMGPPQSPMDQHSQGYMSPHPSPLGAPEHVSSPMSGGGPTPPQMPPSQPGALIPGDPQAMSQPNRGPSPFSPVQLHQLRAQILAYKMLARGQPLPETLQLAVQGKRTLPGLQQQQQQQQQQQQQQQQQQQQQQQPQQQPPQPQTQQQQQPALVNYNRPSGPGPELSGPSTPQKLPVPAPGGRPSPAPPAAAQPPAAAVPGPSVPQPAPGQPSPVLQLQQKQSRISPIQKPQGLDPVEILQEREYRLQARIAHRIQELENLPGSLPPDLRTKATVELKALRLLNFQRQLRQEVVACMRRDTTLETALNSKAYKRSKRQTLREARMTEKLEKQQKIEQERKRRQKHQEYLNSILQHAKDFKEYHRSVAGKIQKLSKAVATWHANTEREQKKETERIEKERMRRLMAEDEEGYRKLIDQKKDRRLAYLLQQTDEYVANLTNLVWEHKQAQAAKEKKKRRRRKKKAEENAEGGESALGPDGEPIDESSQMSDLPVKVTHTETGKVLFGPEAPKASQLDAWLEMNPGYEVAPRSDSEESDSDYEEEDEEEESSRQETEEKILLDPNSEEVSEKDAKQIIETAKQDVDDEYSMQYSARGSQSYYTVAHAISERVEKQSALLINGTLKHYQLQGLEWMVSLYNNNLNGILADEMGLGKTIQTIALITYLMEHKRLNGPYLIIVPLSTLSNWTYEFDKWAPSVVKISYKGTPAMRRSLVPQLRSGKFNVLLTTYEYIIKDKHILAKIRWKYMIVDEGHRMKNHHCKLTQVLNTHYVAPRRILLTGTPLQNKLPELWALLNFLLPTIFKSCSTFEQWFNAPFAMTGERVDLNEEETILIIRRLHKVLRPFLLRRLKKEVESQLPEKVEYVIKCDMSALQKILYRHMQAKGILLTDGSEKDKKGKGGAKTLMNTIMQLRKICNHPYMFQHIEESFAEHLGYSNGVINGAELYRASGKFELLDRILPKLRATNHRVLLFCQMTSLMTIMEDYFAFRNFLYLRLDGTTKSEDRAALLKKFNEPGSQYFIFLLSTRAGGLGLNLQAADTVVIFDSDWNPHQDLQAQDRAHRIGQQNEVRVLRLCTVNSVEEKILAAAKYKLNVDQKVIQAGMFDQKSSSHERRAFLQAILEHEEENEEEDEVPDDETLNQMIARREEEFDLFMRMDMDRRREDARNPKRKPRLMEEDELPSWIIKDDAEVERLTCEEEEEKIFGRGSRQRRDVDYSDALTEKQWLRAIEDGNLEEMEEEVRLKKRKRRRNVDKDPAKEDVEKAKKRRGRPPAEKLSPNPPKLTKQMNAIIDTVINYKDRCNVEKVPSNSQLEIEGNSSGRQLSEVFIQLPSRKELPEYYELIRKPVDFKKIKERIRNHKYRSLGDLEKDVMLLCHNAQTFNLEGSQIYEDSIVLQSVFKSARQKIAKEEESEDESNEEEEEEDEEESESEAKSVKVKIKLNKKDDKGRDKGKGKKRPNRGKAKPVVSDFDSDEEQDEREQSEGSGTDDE
Experiment: SMARCA2 HiBiT degradation assay in HeLa cells
Assay type: cell-based
Conditions: 18 hours, read-out: Dmax % (SM2-HeLa) maximum SMARCA2 degradation within the concentrations tested
Measured Dmax, listed per entry for reference.

Illustrative cases are given below, each with its answer.
INSERT INTO results (compound, readout_name, result) VALUES
  ('Cc1ncsc1-c1ccc([C@H](C)NC(=O)[C@@H]2C[C@@H](O)CN2C(=O)[C@@H](c2cc(OCCN3CCN4c5cc(-c6ccccc6O)nnc5NC(C)C4C3)no2)C(C)C)cc1 (stereo partly shown)', 'Dmax', '> 75%'),
  ('Cc1ncsc1-c1ccc([C@H](C)NC(=O)[C@@H]2C[C@@H](O)CN2C(=O)C(c2cc(CCN(C)CCN3CCN4c5cc(-c6ccccc6O)nnc5NC[C@H]4C3)no2)C(C)C)cc1 (stereo partly shown)', 'Dmax', '> 75%');

Consider the compound shown here: Cc1ncsc1-c1ccc([C@H](C)NC(=O)[C@@H]2C[C@@H](O)CN2C(=O)[C@@H](c2cc(OCCN3CCC(N(C)C4CCN5c6cc(-c7ccccc7O)nnc6NCC5C4)CC3)no2)C(C)C)cc1 (stereo partly shown) What is its recorded Dmax?
> 75%

Consider the compound shown here: Cc1ncsc1-c1ccc([C@H](C)NC(=O)[C@@H]2C[C@@H](O)CN2C(=O)[C@@H](c2cc(OCCN3CCC(N4CCN5c6cc(-c7ccccc7O)nnc6NCC5(C)C4)C3)no2)C(C)C)cc1 (stereo partly shown) What is its recorded Dmax?
> 75%

###

Molecular target: SMARCA4 (Homo sapiens (Human), UniProt P51532)
Sequence (P51532 whole entry): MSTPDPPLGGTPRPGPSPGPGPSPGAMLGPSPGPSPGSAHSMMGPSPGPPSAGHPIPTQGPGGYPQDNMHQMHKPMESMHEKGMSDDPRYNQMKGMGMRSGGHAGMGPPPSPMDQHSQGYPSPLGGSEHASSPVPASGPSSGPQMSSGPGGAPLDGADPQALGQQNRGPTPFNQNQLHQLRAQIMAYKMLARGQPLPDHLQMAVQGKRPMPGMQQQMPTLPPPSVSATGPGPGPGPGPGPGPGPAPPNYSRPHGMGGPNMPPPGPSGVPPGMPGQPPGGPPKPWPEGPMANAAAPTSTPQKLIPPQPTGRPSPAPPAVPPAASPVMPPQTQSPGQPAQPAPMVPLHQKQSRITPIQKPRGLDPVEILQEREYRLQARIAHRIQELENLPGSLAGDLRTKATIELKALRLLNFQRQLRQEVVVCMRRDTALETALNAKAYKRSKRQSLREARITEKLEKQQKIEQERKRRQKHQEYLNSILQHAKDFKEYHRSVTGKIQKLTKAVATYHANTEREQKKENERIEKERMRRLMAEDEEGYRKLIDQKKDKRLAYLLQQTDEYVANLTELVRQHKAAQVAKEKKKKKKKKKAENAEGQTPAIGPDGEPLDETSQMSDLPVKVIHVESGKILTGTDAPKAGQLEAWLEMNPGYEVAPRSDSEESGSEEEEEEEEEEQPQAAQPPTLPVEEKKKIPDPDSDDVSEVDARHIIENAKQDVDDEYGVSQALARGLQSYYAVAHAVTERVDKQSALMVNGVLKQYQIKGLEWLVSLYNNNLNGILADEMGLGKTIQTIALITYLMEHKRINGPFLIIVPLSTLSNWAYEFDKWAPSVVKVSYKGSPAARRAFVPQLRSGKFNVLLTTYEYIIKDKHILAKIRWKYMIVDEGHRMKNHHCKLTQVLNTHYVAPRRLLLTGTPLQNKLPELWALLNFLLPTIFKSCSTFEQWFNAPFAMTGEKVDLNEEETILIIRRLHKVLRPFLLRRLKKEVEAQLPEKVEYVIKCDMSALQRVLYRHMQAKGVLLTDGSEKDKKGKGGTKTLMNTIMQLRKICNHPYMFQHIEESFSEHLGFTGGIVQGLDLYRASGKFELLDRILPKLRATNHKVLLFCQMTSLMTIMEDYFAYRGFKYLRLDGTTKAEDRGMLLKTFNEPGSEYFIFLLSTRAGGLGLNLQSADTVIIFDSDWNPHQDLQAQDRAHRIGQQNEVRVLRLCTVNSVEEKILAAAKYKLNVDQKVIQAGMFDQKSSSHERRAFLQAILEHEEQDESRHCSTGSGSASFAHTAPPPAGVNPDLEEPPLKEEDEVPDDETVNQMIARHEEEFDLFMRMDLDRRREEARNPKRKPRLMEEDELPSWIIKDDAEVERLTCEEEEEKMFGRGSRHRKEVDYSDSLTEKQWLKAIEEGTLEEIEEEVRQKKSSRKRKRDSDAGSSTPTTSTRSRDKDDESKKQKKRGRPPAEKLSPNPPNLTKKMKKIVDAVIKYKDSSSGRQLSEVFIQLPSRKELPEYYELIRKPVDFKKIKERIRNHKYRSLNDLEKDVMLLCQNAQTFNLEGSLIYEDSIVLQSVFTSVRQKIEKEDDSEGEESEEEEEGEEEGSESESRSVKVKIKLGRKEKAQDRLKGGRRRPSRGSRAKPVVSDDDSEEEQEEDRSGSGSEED
Test: SMARCA4 HiBiT degradation assay in HeLa cells
Assay type: cell-based
Details: 18 hours, read-out: DC50 (SM4-HeLa) SMARCA4 degradation potency
READOUT NAME: DC50

Illustrative cases are given below, each with its answer.
INSERT INTO measurements (compound, readout_name, result) VALUES
  ('Cc1ncsc1-c1ccc([C@H](C)NC(=O)[C@@H]2C[C@@H](O)CN2C(=O)[C@@H](c2cc(OCCN3CCC(N4CCC(N5CCN6c7cc(-c8ccccc8O)nnc7NC[C@H]6C5)C4)CC3)no2)C(C)C)cc1 (single isomer, unassigned) [Example 69]', 'DC50', '< 100 nM'),
  ('Cc1ncsc1-c1ccc([C@H](C)NC(=O)[C@@H]2C[C@@H](O)CN2C(=O)[C@@H](c2cc(OCC(=O)N3CCC(N4CCN5c6cc(-c7ccccc7O)nnc6NC[C@H]5C4)C(C)C3)no2)C(C)C)cc1 (single isomer, unassigned)', 'DC50', '< 100 nM');

Now for the compound whose DC50 we want.
Consider the compound shown here: Cc1ncsc1-c1ccc([C@H](C)NC(=O)[C@@H]2C[C@@H](O)CN2C(=O)[C@@H](c2cc(OCCN3CCC(N4CCN5c6cc(-c7ccccc7O)nnc6NCC5(C)C4)C3)no2)C(C)C)cc1 (stereo partly drawn) [Example 72] What is its recorded DC50?
< 100 nM
